Assay: PET hydrolysis, aromatic products released after 48 h (umol product/mg enzyme); higher = more PET depolymerization activity
Conditions: substrate: aFilm; 60 °C; pH 4.5
Collected PET hydrolysis values appear next to each entry.

Below, each entry is followed by its recorded PET hydrolysis result.
sequence: ANPYERGPNPTQALLEARSGPFSVSSERAWRLGSDGFGGGTIYYPRENNTYGAVAISPGYTGTQASVAWLGERIASHGFVVITIDTNTTLDQPDSRADQLEAALDHMVDGASSTVRSRIDRNRLAVMGHSMGGGGTLRLASQRPDLKAAIPLTPWHLNKSWSNVQVPTLIIGADLDTIAPVLTHAEPFYNSIPTSTRKAYLELDGATHFAPNITNSTIGMYSVAWLKRFVDEDTRYTQFLCPGPRTGLFSDVEEYRSTCPF [TEP014]
PET hydrolysis: < 3
//
sequence: ASPYERGPNPTAASVSATTGPFAIASVSVARGNGFGGGVIYYPTATNQGTFGGIAISPGLNGTWAGIAWLGPRLASQGFVVFGIETNNLNDSPTSRGTQLLAALDYLTQRSTVRTRVDAGRLAVMGHSMGGGGALDAALRRPSLQAAIGNAPHLPSGTLSNDRVPTMIYAMQNDTLVPPSRLTTLYNSIPATTERGYILVTGAGHNYIGQPSTTLARTMIPWFKIFIDDDTRYSQFLCPMSNQSGISQYRNSCPLS [ESM160]
PET hydrolysis: < 3

Could you now consider this next sequence?
Prompt line: Reported PET hydrolysis, sequence AVHGPDPTDALLEASRGPYATAQIDVSALAVSGFGGGTIYYPTTTSEGTFGGVAIAPGYTADKSSLAWLAARLASHGFVVFNIDTLTRLDQPDSRGRQLLAALDYLTQRSSVRSRVDASRLGVMGHSMGGGGTLEAAVSRPSLRAAVPLTPWNLDKTWPEVRTPTLIIGADLDTIAPVLTHAEPFYASLPSTLDKAYLELNNATHFAPNITDTTIGKYAVAWMKRFIDDDTRYNRFLCPGPSWSLSVEEYRSTCPF [TEP061] : ____
Response line: < 3

====

Recorded PET hydrolysis for the following sequences
Test: PET hydrolysis, aromatic products released after 48 h (umol product/mg enzyme); higher = more PET depolymerization activity
Details: substrate: cryPow; 40 °C; pH 6.5
Number only, please.

sequence: GETAQTTDVSAQSQFQRGPNPTVSSIEARTGHYRTSTTRVSSFASGFGGGTIYYPTTTSDGTFGGVAVAPGYTASSSTMDWLGPRIASQGFVVFVIDTNTRLDQPSSRGRQLLAALDYLTERSSERHRVDSNRLAVMGHSMGGGGALEATISRPSLKASIPLTPWNLTKNWSRVTTPTLIVGAENDSVASVRSHSIPFYTSLSSSTDRMYVELDGASHFAPNVSNTTIAKYSISWLKRFVDDDTRYDQFLCPLPNERAISDIRGNCPR [DP090]
PET hydrolysis: 7

Prompt line: Value lookup for PET hydrolysis; key = LNPYQRGPNPTDAILEASSGPYATSSISVPSIVSGFGGGRIYYPTTTADGTFGGIAISPGFTATWSSLSWLGPRLASHGFVVIGIETNTIYDQPTSRGQQLLAALDYLVNTSSVRTRVDSSRLAVAGHSMGGGGTLWAANSRPSLQAAIPLAPWNTDKSWSGVRVPTLIVGGQSDTVAPVATHSIPFYTSIPAASEKAYLELRSASHFFPQTVNTTVAVSMVSWLKRYVDDDTRYDPWLCPGPSGLSVSDYRDTCPA [TEP178]
Response line: 21

Prompt line: Dear colleague, I am looking for the recorded PET hydrolysis of the following sequence: ADNPYQRGPDPTRASVAAVNGPFVNTSVSVPTGYGFNGGRIYYPTDTSQGTFGAIAISPGYTALFSAELAWMGPWLASHGFVVIGIETNSRNDFDTARGTQLLAALDYLTQQSPVRDRVDPNRLAVSGHSMGGGGALSAAIRRSSLKAAVGITPYSPSQNLANDRVPTMVISGQADTVVTPSYALGLYNSLPASTESVYLEVAGGDHGFMVGRSNPVLIRTMLPFLKMFVDNDSRYSQFLCPLLDSSGVVTYRSTCPLLPTNPTTPPPTGTPTPTPTSTPTPTPTPTTPPPSGSANE [ESM091]
Response line: 10

====

Assay: melting temperature (DSF); higher = more thermostable
valueKind: melting temperature (C)
Reply numerically in C, unit not repeated.

sequence: AANPYERGPDPTDAILEAARGPFETSRTEVPALSVTGFGGGTIYYPATTSAGTFGGVAVAPGYTADRTSLAWLAERLASHGFVVFNIDTLTRLDQPDSRGRQLLAALDYLTQRSSVRGRLDAGRLGVMGHSMGGGGTLEAARDRPSLQAAVPLTPWDLTKIWSGVRVPTMIVGAEADTIAPVASHAEPFYQSLPSSPGKAYLELNNATHFAPNVPDTTIGKYVVAWMKRFVDDDTRYTRFLCPGPSGGLTVEEYRSTCPFS [TEP194]
valueUnit: C
melting temperature: 50.8

Prompt line: Item under review: AASPYERGPDPTEQTITAERGPFQVATATVPANSASGFNRGTIYYPTDTSQGTFGAVAIIPGFIEPESTMSWYGPRLASQGFVVFTLEPFSVLNFPDDRANQLLAALDYLTGSSSVRSRVDASRLAVMGHSMGGGGTLRAAEMRPSLQAAIPLAPWHLHGDWRNVRVPTMIQAADNDFIAGVGNHAQPFYQNLTNAPEKAYLLFENYGHMSWISANTPIAKYSIAWLKRYVDDDTRYSKFLCPAPGAPSSTFQEYRHTCPD [DP044] . Reported melting temperature?
Response line: 69.4

====

Assay: purified protein yield per well (BCA); higher = higher soluble expression
Listed below: purified protein yield per well values for each entry.

Worked set:
sequence: STRNQEPTLQSIEAARGPYEIATQSVPPAVNTGFGGGTIYYPATTGAGKFGAVALSPGYMEKEYSFSWLGTRLASQGFVVFIINTQNSEEFPSARTDELLASLNYLTQTSEVRDRVDPNRLAVMGHSMGGGAALEAAEKNQSLRAVISMTPWNIKTTYSDIKTPTLIIGAQYDNIAPVHDHAQPSYASLPNDLAKSYLELRNGNHFSPNMENTAIARSSTVWLKRFVDGDTRYNKFICPGPTVGDEFNIVQSNCPIL [DP079]
purified protein yield per well: 281 µg
//
sequence: AQTSQVVTANPHQRGPDPTPETVRAPQGTFAFSTYSVPASVTGFGQGTIYYPDDTTQGTFAGVAISPGYTGPEASVAWLGPRLASRGFVVITITTNSRYDQPTSRGKQLLAALDYLTKQSPTEVRQRLDATRLGVMGHSMGGGGALYAAYKRPSLKAAVPLAPWNLIKNWSGIRVPTLVVAGTADKTASAGAHSLPFYSSMTGARERAFADVTGADHLTFVREDPVIGALAVSWLKRFLDDDTRYAPFITEPVGLSRFLCSCPYAG [DP007]
purified protein yield per well: 46 µg

In the following, a different sequence is considered.
Prompt line: Given the entry AAPVHHPVTRPAPAHHQPAAAAVDQIVVPAAADARFGGGTIFAPRGAGQKVLGSVVVTPGFHGRKSDMAVYGTELAAEGFVVFTIDTRDRADLPDQRATEMLAAADYLTGRSAVKGEVSPDRVALLGYSMGGGGTLQAAQERPSIKAALTLMPYDYPPAGDPKAVHPAYPELTVPTLIITGQKDATAIPAKFGKPAYDSIPAGTPKQYLQLTGLGHAAGMGKPTVAIRAAVTAFLERYLDGDTAYAKQICPAPKVGGPISASISSCPAG [ESM150] , report its measured purified protein yield per well.
Response line: < 25 µg

====

Assay: melting temperature (DSF); higher = more thermostable
Recorded melting temperature, one value per entry.
Please format your answer as a value with the unit trailing.

Prompt line: Using the record for SAQVTRQAAGSYARGPAPTLAGIRAALGPFAYSTVTVTAAQAGGAFGGGTIYYPDDTSQGTFGGVAAVPGYQSAEKAVAWLGPRLASQGFVVITIATNGLTDQPTARGKQLLGALDYLTAQSPAAVRQRLDPNRLAVTGHSMGGGGTLYAAWTRPSLKAAVPLAPWHTIKNWSGITVPTLVQGGTQDTTAQVGTFAEPIYQSLTGARERAYAEIADAAHGTFVRENPLIGALEVAWLKRFVDDDGRYEQFLCPAPADSELTEYRDSCPSS [DP009] , report its melting temperature.
Response line: 46.9 C

Prompt line: # lookup: melting temperature of AADNPYQRGPDPTPASVSANRGTFATTQVAVAAGNGFGGGVIYYPTDTSQGQFGAIAVVPGYTATWAAEGAWMGHWLASFGFVVIGIDTNNRNDWDTARGTQLLAALDYLTQRSSVRDRVDATRTAVMGHSMGGGGAASASLQRPSLKASIGLAPASFSQNLTTTRVPTMLLSGQNDTTITPASVVNLYNGIPASVEKAYLELSGAGHGFPTSNNSTMMRNVIPWFKVFVDSDTRYTQFLCPLANWSGIRTYQSTCPLVPSTPPTSTTTSTTTSTTTSTTTTTTPQPVGACNATYRTTNSWPGGYQGEVTVTAGESGVNGWTTRWTLGSGQTVTQVWNGTLTVDGSTASVRNAAYNGSLPAGGSAAFGFIGGGTPPTSLTCTSP [ESM023]
Response line: 55 C
